experimental_target: tetanus neurotoxin (TeNT), authentic tetanus holotoxin (Clostridium tetani, UniProt P04958 2-1315)
Sequence (P04958 2-457 limits assumed, chain 1 of 2): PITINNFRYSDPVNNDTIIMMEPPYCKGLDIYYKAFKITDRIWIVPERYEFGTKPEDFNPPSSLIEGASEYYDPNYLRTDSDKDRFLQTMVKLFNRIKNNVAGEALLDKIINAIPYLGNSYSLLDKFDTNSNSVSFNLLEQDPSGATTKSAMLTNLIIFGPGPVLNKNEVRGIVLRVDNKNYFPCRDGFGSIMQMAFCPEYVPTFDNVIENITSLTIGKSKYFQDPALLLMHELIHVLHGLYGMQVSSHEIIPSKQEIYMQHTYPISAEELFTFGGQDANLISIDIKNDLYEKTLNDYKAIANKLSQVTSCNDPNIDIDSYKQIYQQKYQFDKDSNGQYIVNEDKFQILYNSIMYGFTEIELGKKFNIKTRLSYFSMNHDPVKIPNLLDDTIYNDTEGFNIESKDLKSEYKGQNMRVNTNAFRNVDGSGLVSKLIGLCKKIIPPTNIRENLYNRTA
Sequence (P04958 458-1315 limits assumed, chain 2 of 2): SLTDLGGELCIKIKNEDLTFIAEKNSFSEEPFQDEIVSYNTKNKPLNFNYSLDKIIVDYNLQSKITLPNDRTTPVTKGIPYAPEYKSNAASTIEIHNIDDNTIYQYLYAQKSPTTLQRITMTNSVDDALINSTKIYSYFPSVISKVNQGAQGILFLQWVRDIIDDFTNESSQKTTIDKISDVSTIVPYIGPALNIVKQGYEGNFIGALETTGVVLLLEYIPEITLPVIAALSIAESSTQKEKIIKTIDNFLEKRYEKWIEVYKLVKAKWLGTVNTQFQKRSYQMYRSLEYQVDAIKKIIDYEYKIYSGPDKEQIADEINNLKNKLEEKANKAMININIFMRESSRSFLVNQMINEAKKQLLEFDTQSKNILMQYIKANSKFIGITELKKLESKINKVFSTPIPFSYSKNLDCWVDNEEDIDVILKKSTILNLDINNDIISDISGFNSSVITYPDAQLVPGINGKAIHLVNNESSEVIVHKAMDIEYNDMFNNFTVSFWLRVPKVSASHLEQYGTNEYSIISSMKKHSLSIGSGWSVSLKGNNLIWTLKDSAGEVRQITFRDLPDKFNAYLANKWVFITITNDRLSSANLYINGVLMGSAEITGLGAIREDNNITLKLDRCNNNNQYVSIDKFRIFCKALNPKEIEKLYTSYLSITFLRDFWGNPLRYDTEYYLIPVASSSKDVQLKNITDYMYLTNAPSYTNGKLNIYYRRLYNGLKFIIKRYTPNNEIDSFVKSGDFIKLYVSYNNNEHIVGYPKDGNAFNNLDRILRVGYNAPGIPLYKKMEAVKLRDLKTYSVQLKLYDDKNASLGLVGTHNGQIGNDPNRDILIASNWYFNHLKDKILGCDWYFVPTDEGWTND
measurement_notes: ELISA, TeNT captured with cAb-TT2, unlabelled binder
property: maximal absorbance at 450 nm

SVT06L (VHH) VHH: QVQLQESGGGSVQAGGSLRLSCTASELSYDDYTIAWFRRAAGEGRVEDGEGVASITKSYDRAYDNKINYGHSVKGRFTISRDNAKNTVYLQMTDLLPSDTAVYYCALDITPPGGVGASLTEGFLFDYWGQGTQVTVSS ... 0.409

Let's switch to this binder now.
Kindly note the recorded maximal absorbance at 450 nm for SVT31L (VHH) VHH: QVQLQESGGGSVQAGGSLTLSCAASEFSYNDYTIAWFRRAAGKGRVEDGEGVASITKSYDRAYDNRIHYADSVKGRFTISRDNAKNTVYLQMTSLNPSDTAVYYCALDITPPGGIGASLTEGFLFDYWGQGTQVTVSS , which is 0.27
